// reported pEC50 per item
- tgt: C. elegans Slo-1a (Caenorhabditis elegans)
- Sequence (Q95V25 whole entry): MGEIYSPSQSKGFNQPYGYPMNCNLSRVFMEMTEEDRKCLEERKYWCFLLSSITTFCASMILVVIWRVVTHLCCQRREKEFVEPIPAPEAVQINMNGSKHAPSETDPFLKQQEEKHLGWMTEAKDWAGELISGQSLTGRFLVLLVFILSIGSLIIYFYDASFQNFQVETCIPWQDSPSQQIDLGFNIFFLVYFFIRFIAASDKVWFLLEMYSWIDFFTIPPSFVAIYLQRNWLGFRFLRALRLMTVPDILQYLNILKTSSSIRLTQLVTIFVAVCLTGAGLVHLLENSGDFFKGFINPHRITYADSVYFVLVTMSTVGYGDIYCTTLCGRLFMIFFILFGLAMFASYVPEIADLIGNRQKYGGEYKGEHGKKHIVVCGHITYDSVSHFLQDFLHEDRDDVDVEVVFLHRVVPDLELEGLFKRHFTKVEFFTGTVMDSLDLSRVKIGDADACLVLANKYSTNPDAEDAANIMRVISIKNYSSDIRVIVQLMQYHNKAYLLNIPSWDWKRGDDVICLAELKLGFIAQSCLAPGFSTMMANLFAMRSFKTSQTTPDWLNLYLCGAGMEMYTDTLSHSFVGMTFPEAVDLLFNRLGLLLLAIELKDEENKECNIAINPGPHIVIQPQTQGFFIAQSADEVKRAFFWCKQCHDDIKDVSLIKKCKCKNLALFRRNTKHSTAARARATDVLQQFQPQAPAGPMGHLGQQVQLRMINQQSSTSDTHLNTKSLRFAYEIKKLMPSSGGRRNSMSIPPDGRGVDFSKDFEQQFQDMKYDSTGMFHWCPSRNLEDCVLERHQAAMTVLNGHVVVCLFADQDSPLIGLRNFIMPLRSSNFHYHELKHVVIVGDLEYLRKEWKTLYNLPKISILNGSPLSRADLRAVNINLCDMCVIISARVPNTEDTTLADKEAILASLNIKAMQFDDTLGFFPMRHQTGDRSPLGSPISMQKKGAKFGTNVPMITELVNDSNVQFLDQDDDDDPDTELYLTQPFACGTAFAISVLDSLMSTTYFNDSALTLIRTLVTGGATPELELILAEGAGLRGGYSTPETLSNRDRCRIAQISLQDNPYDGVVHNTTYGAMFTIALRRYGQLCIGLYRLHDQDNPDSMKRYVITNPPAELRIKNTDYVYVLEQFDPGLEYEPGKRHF
- test.parameters: pE50 (negative decadic logarithm of EC50), CHO cells expressing C. elegans Slo-1a, voltage sensitive dye
pEC50: −log10 of the molar value.

[[record]]
molecule = "CCc1c(C(=O)N[C@H]2CCOc3ccccc32)cnc2c(-c3cc(Cl)cc(Cl)c3Cl)cccc12 [Example 573]"
value_observed = "7.50 to 8.50"


Given the molecule NC(=O)Cc1c(C(=O)N[C@H]2CCOc3ccccc32)cnc2c(-c3cc(Cl)cc(Cl)c3)cccc12 [Example 360] , what is its reported pEC50?
7.50 to 8.50

Given the molecule C=Cc1c(C(=O)N[C@H]2CCOc3ccccc32)cnc2c(-c3cc(Cl)cc(Cl)c3)cccc12 [Example 478] , what is its reported pEC50?
> 8.50

Given the molecule COC(=O)[C@H]1CCN(c2c(C(=O)N[C@H]3CCOc4ccccc43)cnc3c(-c4cc(Cl)cc(Cl)c4)cccc23)C1 [Example 281] , what is its reported pEC50?
> 8.50

Given the molecule CC(C)c1c(C(=O)N[C@H]2CCOc3ccccc32)cnc2c(-c3cccc(C(F)(F)F)c3F)cccc12 [Example 408] , what is its reported pEC50?
> 8.50

Given the molecule O=C(N[C@H]1CCc2ccccc21)c1cnc2c(-c3cc(Cl)cc(Cl)c3)cccc2c1OCC1CCCC1 [Example 348] , what is its reported pEC50?
7.50 to 8.50

Given the molecule Cn1cc(-c2c(C(=O)N[C@H]3CCOc4ccccc43)cnc3c(-c4cc(Cl)cc(Cl)c4)cccc23)c(=O)n(C)c1=O [Example 654] , what is its reported pEC50?
6.50 to 7.50

###

- System: Haemonchus contortus
- test.parameters: 120 h, read-out: activity (larval mortality)
// reported mortality at 20 ppm per item
Express your answer as a number followed by its unit.

// known answers, use as guide
[[record]]
compound = "CC(C)c1c(C(=O)N[C@H]2CCOc3ccccc32)cnc2c(-c3cc(Cl)cc(Cl)c3)cccc12 [Example 359]"
value_observed = "100%"

[[record]]
compound = "CN(C)c1c(C(=O)N[C@H]2CCOc3ccccc32)cnc2c(-c3cc(C#N)cc(Cl)c3Cl)cccc12 [Example 624]"
value_observed = "80%"

[[record]]
compound = "CC(C)c1c(C(=O)N[C@H]2CCOc3ccccc32)cnc2c(-c3cccc(C(F)(F)F)c3F)cccc12 [Example 408]"
value_observed = "90%"

[[record]]
compound = "O=C(N[C@H]1CCOc2ccccc21)c1cnc2c(-c3cc(Cl)cc(Cl)c3)cccc2c1N1CC(F)C1 [Example 392]"
value_observed = "80%"

[[record]]
compound = "Cc1cc(Cl)cc(-c2cccc3c(N4CCC(O)C4)c(C(=O)N[C@H]4CCOc5ccccc54)cnc23)c1F (mixture of isomers) [Example 272]"
value_observed = "90%"

[[record]]
compound = "O=C(N[C@H]1CCOc2ccccc21)c1cnc2c(-c3cc(Cl)cc(Cl)c3)cccc2c1-c1ccncc1 [Example 396]"
value_observed = "100%"

[[record]]
compound = "CN(CC(=O)O)c1c(C(=O)N[C@H]2CCOc3ccccc32)cnc2c(-c3cc(Cl)cc(Cl)c3)cccc12 [Example 150]"
value_observed = "90%"

[[record]]
compound = "CN(C)c1c(C(=O)N[C@H]2CCOc3ccccc32)cnc2c(-c3cc(Cl)ncc3Cl)cccc12 [Example 415]"
value_observed = "100%"

[[record]]
compound = "CN(C)c1c(C(=O)N[C@H]2CCOc3ccccc32)cnc2c(-c3cc(F)c(F)c(F)c3)cccc12 [Example 47]"
value_observed = "100%"

[[record]]
compound = "COc1ccc(-c2cc(Cl)cc(Cl)c2)c2ncc(C(=O)N[C@H]3CCOc4ccccc43)c(N(C)C)c12 [Example 504]"
value_observed = "100%"


Given the compound CN(C)c1c(C(=O)N[C@H]2CCOc3ccccc32)cnc2c(-c3ccc(F)cc3Cl)cc(F)cc12 [Example 180] , what is its reported mortality at 20 ppm?
80%

Given the compound O=C(N[C@H]1CCOc2ccccc21)c1cnc2c(-c3cc(Cl)cc(Cl)c3)cccc2c1N1CC[C@@H](C(=O)O)C1 [Example 332] , what is its reported mortality at 20 ppm?
100%

Given the compound O=C(N[C@H]1CCOc2ccccc21)c1cnc2c(-c3cc(Cl)cc(Cl)c3)cccc2c1N1CCC1 [Example 135] , what is its reported mortality at 20 ppm?
100%

Given the compound CCc1c(C(=O)N[C@H]2CCOc3ccccc32)cnc2c(-c3cc(Cl)cc(Cl)c3Cl)cccc12 [Example 573] , what is its reported mortality at 20 ppm?
100%

Given the compound O=C(N[C@H]1CCOc2ccccc21)c1cnc2c(-c3cccc(F)c3Cl)cccc2c1N1CCC(O)C1 (mixture of isomers) [Example 258] , what is its reported mortality at 20 ppm?
90%

Given the compound O=C(N[C@H]1CCOc2ccccc21)c1cnc2c(-c3cc(Cl)cc(Cl)c3)cccc2c1N1CCOCC1 [Example 17] , what is its reported mortality at 20 ppm?
100%

Given the compound O=C(N[C@H]1CCOc2ccccc21)c1cnc2c(-c3cc(Cl)cc(C(F)(F)F)c3)cccc2c1N1CCC(O)C1 (mixture of isomers) [Example 271] , what is its reported mortality at 20 ppm?
90%

Given the compound Cc1cc(-c2cc(Cl)cc(Cl)c2)c2ncc(C(=O)N[C@H]3CCOc4ccccc43)c(N(C)C)c2c1 [Example 12] , what is its reported mortality at 20 ppm?
80%

Given the compound O=C(N[C@H]1CCOc2ccccc21)c1cnc2c(-c3cccc(Cl)c3Cl)cccc2c1N1CCOCC1 [Example 52] , what is its reported mortality at 20 ppm?
100%

Given the compound CN(C)c1c(C(=O)N[C@H]2CCOc3ccccc32)cnc2c(-c3cccc(Cl)c3Cl)c(F)ccc12 [Example 330] , what is its reported mortality at 20 ppm?
100%

Given the compound O=C(N[C@H]1CCOc2ccccc21)c1cnc2c(-c3cccc(Cl)c3F)cccc2c1N1CCOCC1 [Example 226] , what is its reported mortality at 20 ppm?
100%

Given the compound CN(C)c1c(C(=O)N[C@H]2CCOc3ccccc32)cnc2c(-c3cccc(C(F)(F)F)c3F)cccc12 [Example 50] , what is its reported mortality at 20 ppm?
100%

Given the compound CCc1c(C(=O)N[C@H]2CCOc3ccccc32)cnc2c(-c3cc(Cl)cc(Cl)c3)cccc12 [Example 350] , what is its reported mortality at 20 ppm?
100%

Given the compound CCOC(=O)CN(C)c1c(C(=O)N[C@H]2CCOc3ccccc32)cnc2c(-c3cc(Cl)cc(Cl)c3)cccc12 [Example 137] , what is its reported mortality at 20 ppm?
80%

Given the compound O=C(N[C@H]1CCOc2ccccc21)c1cnc2c(-c3cc(Cl)cc(C(F)(F)F)c3)cccc2c1N1CCOCC1 [Example 235] , what is its reported mortality at 20 ppm?
100%

Given the compound COC(=O)[C@H]1CCN(c2c(C(=O)N[C@H]3CCOc4ccccc43)cnc3c(-c4cc(Cl)cc(Cl)c4)cccc23)C1 [Example 281] , what is its reported mortality at 20 ppm?
80%

Given the compound COc1c(F)ccc(-c2cccc3c(N4CCOCC4)c(C(=O)N[C@H]4CCOc5ccccc54)cnc23)c1F [Example 53] , what is its reported mortality at 20 ppm?
100%

Given the compound COc1c(C(=O)N[C@H]2CCOc3ccccc32)cnc2c(-c3cc(Cl)cc(Cl)c3)cccc12 [Example 373] , what is its reported mortality at 20 ppm?
100%
